- target.of.assay: Casein kinase II subunit alpha (Homo sapiens)
- condition.parameters: at 0.1 µM
- Description: GSK_PKIS: CK2 mean inhibition at 0.1 uM [Nanosyn]
measured.endpoint: inhibition (%)

[[record]]
query_smiles = "CC(C)=Cc1cccc2c1/C(=N/Nc1ccc(S(N)(=O)=O)cc1)C(=O)N2"
target_of_assay = "Casein kinase II subunit alpha (Homo sapiens)"
reading_unit = "%"
experimental_result = 1.84

[[record]]
query_smiles = "COc1cc2ncn(-c3cc(OCc4ccccc4Cl)c(C(N)=O)s3)c2cc1OC"
target_of_assay = "Casein kinase II subunit alpha (Homo sapiens)"
reading_unit = "%"
experimental_result = 2.2

[[record]]
query_smiles = "COc1ccc(-c2coc3ncnc(N)c23)cc1"
target_of_assay = "Casein kinase II subunit alpha (Homo sapiens)"
reading_unit = "%"
experimental_result = 4.06

[[record]]
query_smiles = "Nc1nc(-c2ccccn2)c(-c2ccc3ncccc3n2)s1"
target_of_assay = "Casein kinase II subunit alpha (Homo sapiens)"
reading_unit = "%"
experimental_result = 2.62

[[record]]
query_smiles = "CC(=O)Nc1cccc(C#Cc2cncnc2Nc2ccc(OCc3cccc(F)c3)c(Cl)c2)n1"
target_of_assay = "Casein kinase II subunit alpha (Homo sapiens)"
reading_unit = "%"
experimental_result = 2.14

[[record]]
query_smiles = "CCn1c(-c2nonc2N)nc2ccncc21"
target_of_assay = "Casein kinase II subunit alpha (Homo sapiens)"
reading_unit = "%"
experimental_result = -4.19

[[record]]
query_smiles = "COc1ccccc1Nc1ncc(-c2ccccc2)o1"
target_of_assay = "Casein kinase II subunit alpha (Homo sapiens)"
reading_unit = "%"
experimental_result = 6.18

[[record]]
query_smiles = "c1cnn2ncc(-c3ccnc(Nc4ccc5c(c4)OCCO5)n3)c2c1"
target_of_assay = "Casein kinase II subunit alpha (Homo sapiens)"
reading_unit = "%"
experimental_result = 13.2

[[record]]
query_smiles = "CCn1c(-c2nonc2N)nc2c(N3CCCC3)nccc21"
target_of_assay = "Casein kinase II subunit alpha (Homo sapiens)"
reading_unit = "%"
experimental_result = -0.14

[[record]]
query_smiles = "CCn1c(-c2nonc2N)nc2cnc(Oc3cccc(NC(=O)c4ccc(OCCN5CCOCC5)cc4)c3)cc21"
target_of_assay = "Casein kinase II subunit alpha (Homo sapiens)"
reading_unit = "%"
experimental_result = 2.94

[[record]]
query_smiles = "COC(=O)Nc1nc2cc(Oc3ccc(NC(=O)Nc4cccc(C(=O)O)c4)cc3)ccc2[nH]1"
target_of_assay = "Casein kinase II subunit alpha (Homo sapiens)"
reading_unit = "%"
experimental_result = 1.52

